# assay_system: T1, soluble IGF-1R (recombinant human IGF-1R extracellular domain, R&D Systems Cat. # 391-GR/CF) (human, UniProt P08069 31-935)
# T1 construct: extracellular domain; Bought protein; coated on plates (phage ELISA, TRF) or Eu-labelled (TR-FRET); also called sIGF-1R; rhIGF-1R
# measurement_protocol: phage ELISA
No end group written: not given here.
Here, each record is paired with measured ratio over background data.
Supply the numeric figure in ratio, leaving out any unit text.

binder	measurement_units	reported
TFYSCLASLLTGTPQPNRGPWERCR (on phage) [20C-3-G3-IGFR]	ratio	32.3

I would be grateful if you could share the reported ratio over background for VGTVAGFYDAIAQLVARASRV (on phage) [20E2A-3-C7-ICFR] .
5.4

I would be grateful if you could share the reported ratio over background for FYDAIDQLVRGSARAGGTRD (on phage) [R20α-3-20E2-IR] .
39.9

I would be grateful if you could share the reported ratio over background for QPDHSYFYSLLQELVGSEERL (on phage) [20E2B-4-F9-IGFR] .
14.7

I would be grateful if you could share the reported ratio over background for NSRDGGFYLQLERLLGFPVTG (on phage) [20E2B-3-D4-IGFR] .
7.9

I would be grateful if you could share the reported ratio over background for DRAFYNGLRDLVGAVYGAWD (on phage) [R20α-4-20C11-IR] .
30.8

I would be grateful if you could share the reported ratio over background for LQPCSGFYECIERLIGVKLSG (not fully specified (bridges); cysteine pairing not given here, on phage) [20E2Bβ-4-G7-IR] .
25.2
